For each of the molecules below, state its CC50 at 24 h.
# PROCEDURE SUMMARY: MTT cytotoxicity assay
# Assay type: cell-based, Human
# DETAILS: human, HUH-7 cells

Consider the following illustrative entries.
N=C(N)NCCCCC(=O)Nc1cc(C(F)(F)F)cc(NC(=O)c2cc(C(=O)Nc3cc(C(F)(F)F)cc(NC(=O)CCCCNC(=N)N)c3O[C@@H]3CCNC3)ncn2)c1O[C@@H]1CCNC1 ... > 200 µM
Oc1cccc(C(Nc2nccs2)c2ccc3cccnc3c2O)c1 (stereo not shown) ... > 200 µM
NC(N)=Nc1ccc(-c2ccc(-c3ccc(N=C(N)N)c(Cl)c3)o2)cc1Cl ... 29.7 µM
CCN(CC)CCCC(C)Nc1ccnc2cc(Cl)ccc12 (stereo not shown) ... 58.5 µM
CC(C)(C)NC(=O)[C@@H]1CN(Cc2cnc3occc3c2)CCN1C[C@@H](O)C[C@@H](Cc1ccccc1)C(=O)N[C@H]1c2ccccc2C[C@H]1O ... > 200 µM
COc1nc2ccc(Br)cc2cc1[C@@H](c1ccccc1)[C@@](O)(CCN(C)C)c1cccc2ccccc12 ... > 400 µM

Determine its reported CC50 at 24 h: C[C@@H]1CC[C@H]2[C@@H](C)C(=O)O[C@@H]3O[C@@]4(C)CC[C@@H]1[C@]32OO4
> 100 µM
